The measurements presented in this section are drawn from the RNAGym collection of RNA variant scans (doi:10.7554/elife.80360).

B1: HDV Ribozyme (parent)
chain: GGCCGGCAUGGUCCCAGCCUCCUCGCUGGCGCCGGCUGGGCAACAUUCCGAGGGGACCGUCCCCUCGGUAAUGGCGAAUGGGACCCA

# Variants of: B1
# ASSAY METHOD TEXT: self-cleavage, relative activity (ratio to wild type); higher = more cleavage; co-transcriptional
Label yes (1) when self-cleavage is at or above 0.3; otherwise label no (0).

Check out these entries, answers already filled in.
A56C A87U | yes (1)
C4A C26A | yes (1)
C19U C33A | no (0)
G34U G52A | no (0)
G28A C49G | no (0)
U27G U60G | yes (1)

Test whether the variant C64U G67C records self-cleavage of 0.3 or higher. yes (1)

Kindly determine if self-cleavage recorded for G25C C33U is above or exactly 0.3. no (0)

Form field: self-cleavage at least 0.3? Entry: G5U G50U yes (1)

Hi team, for A45U G50U , is the recorded self-cleavage at or above 0.3? yes (1)

Please indicate if the recorded self-cleavage for U12C C62A meets or exceeds 0.3. yes (1)

Can G40C U72G be said to have self-cleavage at or above 0.3? no (0)
